B1: CPEB3 Ribozyme (parent)
chain: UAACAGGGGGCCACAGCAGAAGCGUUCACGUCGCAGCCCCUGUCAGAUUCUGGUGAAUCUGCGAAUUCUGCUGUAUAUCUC

Variants of: B1
Protocol text: self-cleavage, relative activity (ratio to wild type); higher = more cleavage; in vitro, sequencing
Measurement label: self-cleavage
Provide a numeric answer; units are not to be included.

Please review the entries below; each comes with its answer.
G52U A64U; 0.39
A2U A56U; 0.4

Turning now to a further record.
*Q* Fill blank: measured self-cleavage of the variant A45C U54C is ____.
*A* 0.4
